Field: Clearance (CL) after iv dosing. Provide a value for each of the compounds that follow.
test-description: Pharmacokinetics after intravenous and oral administration in rats
Assay type: in vivo
applied-conditions: iv dosing, dose 1 mg/kg (Ex. 27: 0.72 mg/kg)
Write the answer as a number in mL/min/kg, unit excluded.

Which measured Clearance (CL) after iv dosing value corresponds to N#CCC(=O)N1CCC2(CCC(Nc3nc(Nc4cnn(CC5CC5)c4)ncc3Cl)CC2)CC1 [Ex. 48] ?
66.2

Which measured Clearance (CL) after iv dosing value corresponds to CN(c1ccnc(Nc2cnn(C)c2)n1)C1CNCC12CCCC2 (centres unmarked) [Ex. 1] ?
157

Which measured Clearance (CL) after iv dosing value corresponds to Cn1cc(Nc2ncc(Cl)c(NC3CN(C(=O)CC#N)CC34CCCC4)n2)cn1 (centres unmarked) [Ex. 18] ?
45.8

Which measured Clearance (CL) after iv dosing value corresponds to Cn1cc(Nc2ncc(Cl)c(NC3CCC4(CC3)CCN(c3ccc(C#N)cn3)CC4)n2)cn1 [Ex. 27] ?
27.8

Which measured Clearance (CL) after iv dosing value corresponds to N#CCC(=O)N1CC2CC(Nc3nc(Nc4cnn(CCO)c4)ncc3Cl)CC2C1 (centres unmarked) [Ex. 44] ?
49.3

====

test-description: Compound stability in rat liver microsomes
Format: in vitro ADME
applied-conditions: rat, liver microsomes, pH 7.4, Rat liver microsomes 0.5 mg protein/mL, compound 5 μM, NADPH 1.0 mM, 37° C.
Field: half-life at 5 μM. Provide a value for each of the compounds that follow.
Write the answer as a number in min, unit excluded.

Which measured half-life at 5 μM value corresponds to N#CCC(=O)N1CCC2(CCC(Nc3nc(Nc4cc(C5CC5)[nH]n4)ncc3Cl)CC2)CC1 ?
31.6

Which measured half-life at 5 μM value corresponds to Cc1cnc(Nc2cnn(C)c2)nc1NC1CCC2(CC1)CCN(C(=O)CC#N)C2 (stereo not drawn) ?
52.6

Which measured half-life at 5 μM value corresponds to CN(c1nc(Nc2cnn(C)c2)ncc1Cl)C1CCC2(CCNC2)CC1 (single isomer, unassigned) [Ex. 3.10A] ?
12.8

Which measured half-life at 5 μM value corresponds to Cc1cnc(Nc2cnn(C)c2)nc1N(C)C1CCC2(CC1)CCN(C(=O)CC#N)CC2 ?
4.5

Which measured half-life at 5 μM value corresponds to Cn1cc(Nc2ncc(Cl)c(NC3CCC4(CC3)CCN(S(C)(=O)=O)CC4)n2)cn1 ?
40.3

Which measured half-life at 5 μM value corresponds to CC(=O)N1CCC2(CCC(Nc3nc(Nc4cnn(C)c4)ncc3Cl)CC2)CC1 ?
73.6

====

Field: CLint scaled at 5 μM. Provide a value for each of the compounds that follow.
test-description: Compound stability in rat liver microsomes
Assay type: in vitro ADME
applied-conditions: rat, liver microsomes, pH 7.4, Rat liver microsomes; in vivo CLint extrapolated
Write the answer as a number in mL/min/kg, unit excluded.

Which measured CLint scaled at 5 μM value corresponds to CN(c1nc(Nc2cnn(C)c2)ncc1Cl)C1CCC2(CCNC2)CC1 (single isomer, unassigned) [Ex. 3.10A] ?
194

Which measured CLint scaled at 5 μM value corresponds to N#CCC(=O)N1CCC2(CCC(Nc3nc(Nc4cnn(CC5CC5)c4)ncc3Cl)CC2)CC1 ?
102

Which measured CLint scaled at 5 μM value corresponds to Cn1cc(Nc2ncc(Cl)c(NC3CCC4(CC3)CCN(S(C)(=O)=O)CC4)n2)cn1 ?
61.6

Which measured CLint scaled at 5 μM value corresponds to CN(c1nc(Nc2cnn(C)c2)ncc1Cl)C1CCC2(CC1)CCN(C(=O)CC#N)C2 (single isomer, unassigned) ?
200

Which measured CLint scaled at 5 μM value corresponds to Cn1cc(Nc2ncc(Cl)c(NC3CCC4(CC3)CCN(c3ccc(C#N)cn3)CC4)n2)cn1 ?
270
